Just for reference, patent US20130338383A1 is where these values come from.

- subject.of.test: NR1/NR2B NMDA receptors (Rattus norvegicus, UniProt P35439+Q00960)
- Sequence (Q00960 27-1482, other chains not shown): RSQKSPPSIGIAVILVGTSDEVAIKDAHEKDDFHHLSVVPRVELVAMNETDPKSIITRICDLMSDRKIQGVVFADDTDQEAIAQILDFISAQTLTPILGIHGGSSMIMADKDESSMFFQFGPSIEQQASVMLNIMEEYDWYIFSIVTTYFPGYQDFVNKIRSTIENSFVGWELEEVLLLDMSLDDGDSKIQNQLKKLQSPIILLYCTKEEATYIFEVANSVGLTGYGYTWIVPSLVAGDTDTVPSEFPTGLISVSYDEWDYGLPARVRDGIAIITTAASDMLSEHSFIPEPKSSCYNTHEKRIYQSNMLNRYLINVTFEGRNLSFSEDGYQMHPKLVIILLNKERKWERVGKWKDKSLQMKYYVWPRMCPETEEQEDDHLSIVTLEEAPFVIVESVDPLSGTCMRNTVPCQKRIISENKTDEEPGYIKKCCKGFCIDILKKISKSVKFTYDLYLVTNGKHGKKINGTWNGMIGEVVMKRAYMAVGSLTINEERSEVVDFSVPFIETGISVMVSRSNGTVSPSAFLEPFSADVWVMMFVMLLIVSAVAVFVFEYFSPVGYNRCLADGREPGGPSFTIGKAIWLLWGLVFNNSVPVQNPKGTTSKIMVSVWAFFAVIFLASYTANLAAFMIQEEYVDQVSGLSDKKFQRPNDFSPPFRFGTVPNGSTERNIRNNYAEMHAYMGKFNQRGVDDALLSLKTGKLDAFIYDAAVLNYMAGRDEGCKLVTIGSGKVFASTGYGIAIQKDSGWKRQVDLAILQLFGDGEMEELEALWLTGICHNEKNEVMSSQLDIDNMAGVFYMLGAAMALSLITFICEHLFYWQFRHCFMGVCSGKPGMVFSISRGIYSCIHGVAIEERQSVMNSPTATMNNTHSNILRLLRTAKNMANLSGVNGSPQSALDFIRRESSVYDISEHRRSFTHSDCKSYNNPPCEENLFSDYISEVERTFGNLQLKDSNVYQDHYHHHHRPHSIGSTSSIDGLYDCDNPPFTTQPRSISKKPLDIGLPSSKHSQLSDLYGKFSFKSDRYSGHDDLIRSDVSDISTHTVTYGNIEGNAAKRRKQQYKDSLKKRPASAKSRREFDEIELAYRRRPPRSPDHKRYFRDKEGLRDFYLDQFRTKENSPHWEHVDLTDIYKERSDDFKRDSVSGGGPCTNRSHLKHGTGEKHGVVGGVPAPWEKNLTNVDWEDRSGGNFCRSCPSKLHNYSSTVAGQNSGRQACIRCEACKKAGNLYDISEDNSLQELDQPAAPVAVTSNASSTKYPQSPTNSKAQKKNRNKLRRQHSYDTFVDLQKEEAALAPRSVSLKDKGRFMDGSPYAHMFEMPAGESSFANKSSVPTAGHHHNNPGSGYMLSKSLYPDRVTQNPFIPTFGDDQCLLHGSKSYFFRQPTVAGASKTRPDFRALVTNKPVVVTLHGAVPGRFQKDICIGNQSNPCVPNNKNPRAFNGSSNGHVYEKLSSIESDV
- assay.explanation: Patch-clamp inhibition of glutamate-elicited currents in HEK293 cells transfected with NR1-1a/NR2B
- test.settings: calculated from relative inhibition with Hill's coefficient 1.2; 5 cells
metric: IC50

* CC(=O)C1CCC2C3CC[C@@H]4C[C@H]([N+](C)(C)C)CC[C@]4(C)C3CC[C@]12C.[Cl-] (stereo partly drawn) [Example 10] | 107 µM
* CC(=O)[C@H]1CC[C@H]2[C@@H]3CC[C@@H]4C[C@H](OC(=O)CCC[N+](C)(C)C)CC[C@]4(C)[C@H]3CC[C@]12C.[Cl-] [Example 6] | 5.9 µM
* CCC(CCC(=O)O[C@@H]1CC[C@@]2(C)[C@H](CC[C@@H]3[C@@H]2CC[C@]2(C)[C@@H](C(C)=O)CC[C@@H]32)C1)[N+](C)(C)C.[Cl-] (stereo partly drawn) [Example 7] | 23.6 µM
* CC(=O)[C@H]1CC[C@H]2[C@@H]3CC[C@@H]4C[C@H](OC(=O)C[N+](C)(C)C)CC[C@]4(C)[C@H]3CC[C@]12C.[Cl-] [Example 8, acetate hydrochloride] | 22.4 µM
* CC(=O)[C@H]1CC[C@H]2[C@@H]3CC[C@@H]4C[C@H](OC(=O)CN(C)C(=N)N)CC[C@]4(C)[C@H]3CC[C@]12C.Cl [Example 5, acetate hydrochloride] | 3.3 µM

## Input Suppose we examine the compound CC(=O)O.CC(=O)O.CC(=O)[C@H]1CC[C@H]2[C@@H]3CC[C@@H]4C[C@H](OC(=O)[C@@H](N)CCCNC(=N)N)CC[C@]4(C)[C@H]3CC[C@]12C [Example 2, diacetate salt] ; what IC50 value has been reported?
## Output 5.3 µM
